test system: SK-OV-3 ovarian; assay: NCI tumour cell line growth inhibition, 48 h
Please respond with reported GI50 for every item in the list.

Given the compound `CCOC(=O)c1c(C)n(Cc2ccc(OC)cc2)c2c1cc(O)c1[nH]c3c(c12)CCCC3` , what is its reported GI50?
9.47 µM

Please give the measured GI50 for this compound: COc1ccc(OC(=O)O[C@H]2[C@H](O[C@H]3[C@@H](O)COC(O[C@H]4C[C@H]5[C@@H]6CC=C7C[C@@H](O)CC[C@]7(C)[C@H]6CC[C@]5(C)[C@H]4[C@H](C)C(=O)CCC(C)C)[C@@H]3OC(C)=O)OC[C@@H](O)[C@@H]2O)cc1 (stereo partly drawn)
0.329 µM

So what's the measured GI50 for this one? `COC(=O)c1cc2c(c(C(=O)OC)c1O)C(=O)C=CC2=O`
> 9.1 µM

Can you look up the measured GI50 of `COc1ccc(-c2nc(-c3nc4ccc(C)cc4[nH]3)c3ccccn23)cc1` for me?
6.95 µM

# input compound: `COc1ccc(C(=O)/C=C/c2cccnc2Nc2cc(OC)c(OC)c(OC)c2)cc1` ; wanted: its GI50
4.12 µM

I am curious: what GI50 value has been reported for `COc1ccc(-c2cc3c(nn2)-c2ccccc2C3=O)cc1` ?
> 100 µM

Record request: GI50 value, item `Cc1cc(C)cc(Nc2cc(C)nc3nc(C(F)(F)F)nn23)c1`
81.5 µM

// GI50 lookup, key: `CCCCn1c(-c2ccc(C(=O)O/N=C(\N)c3ccc(OC)cc3)cc2)nc(-c2ccccc2)c1-c1ccccc1`
3.76 µM

Please look up its GI50: COc1ccc(C2CC(=O)c3c(OC)cc(OC)cc3O2)cc1 (stereo not drawn)
> 100 µM

Name the recorded GI50 for `CCCCC/C=C/C/C=C/CCCCCCCC1=NC(C)(C)CN1C(C)C` .
3.07 µM

# lookup: GI50 of C[C@]12CC[C@@H]3c4ccc(O)cc4C[C@@H](CCCCCCCCCS(=O)CCCC(F)(F)C(F)(F)F)[C@H]3[C@@H]1CC[C@@H]2O (stereo partly drawn)
> 100 µM

Param item = `CC[C@H](C)[C@H](NC(=O)[C@H]1CCCCN1C)C(=O)N(C)[C@H](CCc1nc(C(=O)N[C@@H](Cc2ccccc2)C[C@H](C)C(=O)OC)cs1)C(C)C` ; retrieve measured GI50.
0.797 µM

Quick one: GI50 of `NCCCCn1c2c(c3ccccc3c1=O)C(=O)c1ccccc1-2` ?
1.04 µM

----------
Could you please report measured TGI for the items listed next?
tested on: U251 CNS; experiment: NCI tumour cell line growth inhibition, 48 h

Quick check: TGI on U251 CNS, item `Cn1c(=O)c2c(nc(NCCCCl)n2CC(=O)NCCCCl)n(C)c1=O` ?
> 100 µM

Give U251 CNS TGI for `CCCNC(=S)N/N=C(\C)c1ccccn1`
> 100 µM

Please state recorded TGI (tested on U251 CNS) of `Cc1cc(NS(=O)(=O)c2ccc(NC(=O)c3cccc4c(=O)c5ccccc5[nH]c34)cc2)no1`
> 100 µM

Item `O=[N+]([O-])c1ccc2nnnn2c1` with U251 CNS - TGI?
84.9 µM

Request body: readout TGI, system U251 CNS, query `N#CCCN(CCC#N)c1ccc(C(=O)NN)cc1` . Return the value.
> 100 µM

Return TGI measured with U251 CNS given this compound: `Cc1[nH]c(N=Nc2ccccc2)nc1N=Nc1ccccc1`
> 37.5 µM

Request: TGI, test system U251 CNS, entry COC1(OC)C2(Cl)CCC1(Cl)C(OC(C)=O)C2 (stereo not given)
> 100 µM

Give the reported TGI for `Cc1cc(O)c(/C=N/C(=S)NCCc2ccccc2)c(=O)o1` (system: U251 CNS).
> 100 µM

Which measured TGI belongs to `CC(C)(C)OC(=O)N(CCCN(CCn1c2c(c3ccccc3c1=O)C(=O)c1ccccc1-2)C(=O)OC(C)(C)C)CCn1c2c(c3ccccc3c1=O)C(=O)c1ccccc1-2` , tested on U251 CNS?
> 50 µM

Hi! What's the reported TGI for COc1cc2c(c(OC)c1OC)-c1ccc(SC)c(=O)cc1C(CC(=O)Oc1ccc([N+](=O)[O-])cc1)C2 (stereo not given) on U251 CNS?
1.43 µM

----------
system: DLD-1 colon; assay: NCI tumour cell line growth inhibition, 48 h
For each entry below, report its TGI value.

Which TGI value belongs to Cc1cc(=O)[nH]c(NNC(C#N)c2ccc(O)cc2)n1 (stereo unspecified) ?
> 100 µM

Item under review: `CC(C)CCN=c1cc2n(-c3ccc(Cl)cc3)c3ccccc3nc-2cc1Nc1ccc(Cl)cc1` . Reported TGI?
68.4 µM

Data request, read-out TGI, for `O=C(CSc1nnc(Cc2ccccc2)o1)Nc1cccc([N+](=O)[O-])c1`
> 100 µM

Return reported TGI; argument: `Cc1cc(NS(=O)(=O)c2ccc(NC(=O)c3cccc4c(=O)c5ccccc5[nH]c34)cc2)no1`
> 100 µM

Param item = COc1cc2c(c(OC)c1OC)-c1ccc(SC)c(=O)cc1C(CC(=O)Oc1ccc([N+](=O)[O-])cc1)C2 (stereo unspecified) ; retrieve measured TGI.
8.69 µM

Return reported TGI; argument: `CCN(CC)C(=O)C/C(C)=N/NC(=O)c1ccncc1`
> 100 µM

Which TGI value belongs to `O=C1c2ccccc2S[C@@H](O)[C@@H]2CCCN12` ?
> 100 µM

Consider the compound CC(=O)OC1CC2OC(Cc3ccccc32)O1 (stereo unspecified) and give its measured TGI.
> 100 µM

Quick one: TGI of `N#Cc1cnsc1` ?
> 100 µM

So what does the record say about TGI for `CC1=CC(=O)NCCN1C` ?
> 100 µM

Give the measured TGI of `Cc1cccc(C(C)(C)C)c1NC(=O)CCc1n[nH]c(=S)o1` .
> 100 µM

----------
Record form. Attribute: GI50. Fill in for each entry.
test system: NCI-H23 lung; experiment: NCI tumour cell line growth inhibition, 48 h

If you can, please state the reported GI50 value of `COc1ccc(-n2cc(-c3cc(OC)c(OC)c(OC)c3)[nH]c2=S)cc1OC` .
> 100 µM

Given the entry `CC(=O)[O][Hg][c]1c(C)c(C)c(C)c(C)c1C` , report its measured GI50.
0.98 µM

Entry `COc1ccc(-c2nc(-c3nc4ccc(C)cc4[nH]3)c3ccccn23)cc1` : reported GI50 = ?
3.85 µM

Any idea what its GI50 is? The compound is `COC(=O)[C@]12CCC(C)(C)C[C@H]1C1=CC[C@@H]3[C@@]4(C)C/C(=C/c5cccnc5)C(=O)C(C)(C)[C@@H]4CC[C@@]3(C)[C@]1(C)CC2`
8.05 µM

Look up GI50 for this compound: `COc1ccc2cc(C(=O)/C=C/c3cccc(OC)c3OC)ccc2c1`
11.2 µM

Endpoint output: GI50 of `COc1cc(C(=O)O[C@H](C(N)=O)[C@]2(C)CO2)c2ccccc2c1` . Value?
7.95 µM

Report GI50 for `CCOC(=O)c1c(C)n(Cc2ccc(OC)cc2)c2c1cc(O)c1[nH]c3c(c12)CCCC3` please.
1.9 µM

Query (compound): `COc1cccc(N=Cc2c3ccccc3c(=O)n3c2oc2ccccc23)c1` ; field requested: GI50
13.3 µM

I have this compound here, `COc1cc(Cn2c(-c3ccccc3)cc3c2-c2oncc2CC3)cc(OC)c1OC` , and I need its recorded GI50.
2.57 µM

----------
test system: NCI-H226 lung; experiment: NCI tumour cell line growth inhibition, 48 h; in the data active = GI50 below about 0.43 µM; inactive = the rest
A correct response names exactly one class from active, inactive

Status in this test for `COc1ccc(S(=O)(=O)N(Cc2ccc3c(n2)C=CC(C)(C)O3)C2CCC2)cc1OC` ?
active

Name the outcome recorded for `CN1C(NC(=O)c2ccc(Cl)nc2)=NS(=O)(=O)c2cc(Cl)ccc21` in the assay.
inactive

Dear all, I need the recorded test outcome for COc1ccc(C2CC(=O)c3c(O)c(OC)c(OC)c(OC)c3O2)c(O)c1 (stereo not given) , thank you.
inactive

GET /call?item= `C=C1C(=O)O[C@H]2[C@H]1CC/C(COC(=O)/C=C\C(=O)NCc1ccc(Cn3c(=O)sn(-c4ccc(C#N)cc4)c3=O)cc1)=C\CC[C@@]1(C)O[C@@H]21` returns the recorded outcome of this test.
inactive

Which outcome was assigned to CC12CCCC(CC(=O)c3[nH]c4ccccc4c31)C2 (stereo not given) in this test?
inactive

----------
So I've got a bunch of compounds here, and I need their TGI values.
tested on: EKVX NSCLC; test: NCI tumour cell line growth inhibition, 48 h

What measured TGI goes with `O=[N+]([O-])C(C(Cl)=C(Cl)Cl)=C(N1CCOCC1)N1CCOCC1` ?
> 100 µM

What measured TGI goes with CC1=CC(=O)NP(=O)(Oc2ccc(C)cc2)N1 (stereo unspecified) ?
> 100 µM

May I ask what TGI has been recorded for CCOC(=O)C(Cl)(NC(=O)c1ccc(F)cc1)C(F)(F)F (stereo unspecified) ?
> 100 µM

Quick check: TGI of `N#CC1=C(N2CCCC2)NC(=O)CC1=O` ?
> 100 µM

Any idea what TGI was measured for `CCCCC/C=C/C/C=C/CCCCCCCC1=NC(C)(C)CN1C(C)C` ?
2.73 µM

Form field: reported TGI of `COC(=O)c1ccc2c(c1)n(Cc1ccc3ccccc3c1)c[n+]2Cc1ccc2ccccc2c1`
20.4 µM

Sourced from PubChem BioAssay (NCI)
